Test system: phosphorylation of the retinoblastoma protein (pRb) in HCT-116 cells
Test Name: pRb immunoblotting (anti-Rb antibody)
Type: cell-based, human
Stated Conditions: five micromolar of each compound for 12 hours, western blot
Where a name gives a salt, the structure may show the parent alone.
Value Kind: Inhibits pRb phosphorylation

# Compound, Inhibits pRb phosphorylation
rows = [
    ("Cc1ccsc1C(=O)c1sc(Nc2ccc(S(N)(=O)=O)cc2)nc1N", "+"),
    ("Cc1cc(C(=O)c2sc(Nc3ccc(S(N)(=O)=O)cc3)nc2N)c(C)s1", "+"),
    ("Nc1nc(Nc2ccc(N3CCNCC3)cc2)sc1C(=O)c1c(F)cccc1F", "+"),
    ("Cc1ccsc1C(=O)c1sc(Nc2ccc(N3CCNCC3)cc2)nc1N [H(1), Trihydrochloride]", "+"),
]

Shift focus to the following entry.
stdin: Please state recorded Inhibits pRb phosphorylation (tested on phosphorylation of the retinoblastoma protein (pRb) in HCT-116 cells) of Cc1cc([N+](=O)[O-])sc1C(=O)c1sc(Nc2ccc(N3CCN(C)CC3)cc2)nc1N
stdout: +

###

Target Desc: human CDK1 (cdc2) and cyclin B (Homo sapiens)
Construct: purchased New England Biolabs (Beverly Mass.)
Test Name: Inhibition of CDK1(cdc2)/cyclin B histone H1 kinase activity
Format: biochemical
Stated Conditions: read-out: Ki CDK 1/B
Value Kind: pKi
pKi here is simply -log10 of the concentration when that concentration is written in mol/L.

Worked examples follow.
# Compound, Measured
rows = [
    ("Nc1nc(Nc2ccc(N3CCNCC3)cc2)sc1C(=O)c1c(Cl)cccc1Cl [H(3)]", 6.33),
    ("Nc1nc(Nc2ccccc2)sc1C(=O)c1ccccc1 [I(1)*]", 6.30),
    ("Nc1nc(Nc2ccc(S(=O)(=O)NCC3CCNCC3)cc2)sc1C(=O)c1c(F)cccc1F [J(4)]", 7.66),
]

stdin: Quick one: pKi for CN1CCN(c2ccc(Nc3nc(N)c(C(=O)c4c(Cl)cc(Br)c(N)c4Cl)s3)cc2)CC1 [C(96)] ?
stdout: 6.64

stdin: Quick one: pKi for CN1CCN(c2ccc(Nc3nc(N)c(C(=O)c4c(Cl)cc(C(F)(F)F)cc4Cl)s3)cc2)CC1 [C(81)] ?
stdout: 5.91

stdin: Quick one: pKi for CN(C)S(=O)(=O)c1ccc(Nc2nc(N)c(C(=O)c3c(F)cccc3F)s2)cc1 [C(109)] ?
stdout: 7.46

###

Target Desc: human CDK1 (cdc2) and cyclin B (Homo sapiens, UniProt P06493)
Sequence (P06493 whole entry): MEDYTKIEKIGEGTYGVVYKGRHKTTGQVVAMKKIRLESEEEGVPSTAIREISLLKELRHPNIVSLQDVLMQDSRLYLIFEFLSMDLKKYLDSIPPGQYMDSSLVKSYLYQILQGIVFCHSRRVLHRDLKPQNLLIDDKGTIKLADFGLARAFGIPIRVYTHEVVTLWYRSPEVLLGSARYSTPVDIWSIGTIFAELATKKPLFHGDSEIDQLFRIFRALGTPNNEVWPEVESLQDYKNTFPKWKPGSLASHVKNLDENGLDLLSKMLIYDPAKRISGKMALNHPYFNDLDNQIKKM
Sequence (P14635 whole entry partner): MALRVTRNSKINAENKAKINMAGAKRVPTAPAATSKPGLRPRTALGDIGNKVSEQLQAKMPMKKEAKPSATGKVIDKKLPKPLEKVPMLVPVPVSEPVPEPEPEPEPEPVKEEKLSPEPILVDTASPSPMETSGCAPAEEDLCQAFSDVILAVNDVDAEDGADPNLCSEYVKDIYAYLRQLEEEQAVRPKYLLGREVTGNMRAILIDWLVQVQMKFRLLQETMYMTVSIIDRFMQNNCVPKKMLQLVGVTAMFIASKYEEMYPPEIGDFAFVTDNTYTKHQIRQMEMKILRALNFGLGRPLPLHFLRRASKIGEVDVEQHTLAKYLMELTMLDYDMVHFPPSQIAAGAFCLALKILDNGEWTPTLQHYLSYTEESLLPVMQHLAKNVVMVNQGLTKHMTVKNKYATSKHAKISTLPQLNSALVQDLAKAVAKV
Test Name: Inhibition of CDK1(cdc2)/cyclin B histone H1 kinase activity
Stated Conditions: read-out: Ki CDK 1/B
Value Kind: Ki

Worked examples follow.
# Record Smiles, Ki
measured = [
    ("CN1CCN(c2ccc(Nc3nc(N)c(C(=O)c4c(F)cccc4C(F)(F)F)s3)cc2)CC1", "0.911 µM"),
    ("CCOC(=O)c1ccc(Nc2nc(N)c(C(=O)c3ccccc3[N+](=O)[O-])s2)cc1", "0.163 µM"),
]

stdin: Please state recorded Ki (tested on human CDK1 (cdc2) and cyclin B (Homo sapiens, UniProt P06493)) of Nc1nc(Nc2ccccc2)sc1C(=O)C1CC1
stdout: 3.9 µM

stdin: Please state recorded Ki (tested on human CDK1 (cdc2) and cyclin B (Homo sapiens, UniProt P06493)) of Cc1c(C(=O)c2sc(Nc3ccc(S(N)(=O)=O)cc3)nc2N)sc2ccccc12
stdout: 0.034 µM

stdin: Please state recorded Ki (tested on human CDK1 (cdc2) and cyclin B (Homo sapiens, UniProt P06493)) of Nc1nc(Nc2cccnc2)sc1C(=O)c1ccccc1
stdout: 3.5 µM

###

Target Desc: complex of cyclin D1 and a fusion protein of human CDK4 and glutathione-S-transferase (GST-CDK4) (Homo sapiens, UniProt P11802)
Construct: made in house; host or cells: insect cells, co-infected with baculovirus
Sequence (P24385 whole entry partner, one chain of several, the tested form may be a part): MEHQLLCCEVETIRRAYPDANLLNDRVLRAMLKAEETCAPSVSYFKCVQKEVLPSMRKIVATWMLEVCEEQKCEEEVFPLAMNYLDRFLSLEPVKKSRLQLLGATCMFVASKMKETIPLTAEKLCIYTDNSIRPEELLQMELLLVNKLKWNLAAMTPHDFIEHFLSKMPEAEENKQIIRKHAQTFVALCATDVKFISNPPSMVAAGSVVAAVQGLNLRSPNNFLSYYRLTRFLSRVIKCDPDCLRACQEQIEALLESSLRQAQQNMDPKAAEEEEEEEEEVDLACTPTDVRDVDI
Test Name: Inhibition of CDK4/cyclin D retinoblastoma kinase activity (D-type cyclin is D1)
Format: biochemical
Stated Conditions: superscript b: D-type cyclin is D1; read-out: Ki CDK 4/D
The compounds listed here are annotated with their Ki.
// units = nM; emit number, no label

Worked examples follow.
# Record Smiles, Measured
measured = [
    ("Nc1nc(Nc2ccccc2)sc1C(=O)c1cccc([N+](=O)[O-])c1", 770),
    ("CCNc1nc(N)c(C(=O)c2ccccc2)s1", 870),
    ("Nc1nc(Nc2ccccc2)sc1C(=O)c1ccccc1", 102),
]

Shift focus to the following entry.
stdin: Quick one: Ki for Nc1cccc(C(=O)c2sc(Nc3ccccc3)nc2N)c1 ?
stdout: 490

###

Target Desc: complex of human CDK4 and cyclin D3 (Homo sapiens)
Construct: made in house; host or cells: insect cells, co-infected with baculovirus
Sequence (P11802 whole entry): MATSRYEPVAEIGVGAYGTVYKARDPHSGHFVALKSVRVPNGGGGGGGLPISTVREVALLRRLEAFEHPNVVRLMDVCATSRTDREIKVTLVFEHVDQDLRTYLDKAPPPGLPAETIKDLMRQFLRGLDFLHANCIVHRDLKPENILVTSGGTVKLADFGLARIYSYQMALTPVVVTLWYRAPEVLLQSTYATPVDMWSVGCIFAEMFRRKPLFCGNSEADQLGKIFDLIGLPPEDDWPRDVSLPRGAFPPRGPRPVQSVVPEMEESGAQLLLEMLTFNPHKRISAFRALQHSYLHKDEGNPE
Sequence (P30281 whole entry partner): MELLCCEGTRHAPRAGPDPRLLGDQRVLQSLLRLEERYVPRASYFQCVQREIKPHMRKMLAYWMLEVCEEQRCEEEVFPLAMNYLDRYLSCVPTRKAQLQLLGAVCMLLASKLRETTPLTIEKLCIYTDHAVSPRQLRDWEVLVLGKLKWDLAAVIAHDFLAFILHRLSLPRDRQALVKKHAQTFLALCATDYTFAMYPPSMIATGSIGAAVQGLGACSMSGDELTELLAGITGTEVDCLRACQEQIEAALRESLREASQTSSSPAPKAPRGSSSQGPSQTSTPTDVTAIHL
Test Name: Inhibition of CDK4/cyclin D retinoblastoma kinase activity (D-type cyclin is D3)
Format: biochemical
Stated Conditions: superscript a: D-type cyclin is D3; apparent Ki; read-out: Ki CDK 4/D
Value Kind: Ki

# Record Smiles, Ki
measured = [
    ("COc1ccccc1C(=O)c1sc(NCCc2ccc(Cl)cc2)nc1N", "1020 nM"),
]

Shift focus to the following entry.
stdin: Quick one: Ki for Cc1nc2ccc(Nc3nc(N)c(C(=O)c4ccccc4[N+](=O)[O-])s3)cc2[nH]1 ?
stdout: 150 nM

###

Tested on: MCF-7
Test Name: Inhibition of cell growth, MTT assay, MCF-7
Type: cell-based
Stated Conditions: Homo sapiens, MCF7; MCF-7, MTT assay
The molecules listed here are annotated with their IC90.
// units = µM; emit number, no label

Worked examples follow.
# Molecule, IC90 (µM)
measured = [
    ("Nc1nc(Nc2ccc(S(N)(=O)=O)cc2)sc1C(=O)c1c(F)cccc1F [C(85)]", 13),
    ("Nc1nc(Nc2ccc(N3CCNCC3)cc2)sc1C(=O)c1c(F)cccc1F [J(2)]", 1.7),
    ("CN(C)CCN(C)c1ccc(Nc2nc(N)c(C(=O)c3c(F)cccc3F)s2)cc1 [C(110)]", 1.7),
    ("COc1ccc(Nc2nc(N)c(C(=O)c3ccccc3[N+](=O)[O-])s2)cc1 [A(10)]", 5.5),
]

Shift focus to the following entry.
stdin: Quick one: IC90 for CN1CCN(c2ccc(Nc3nc(N)c(C(=O)c4c(Cl)cc(C(F)(F)F)cc4Cl)s3)cc2)CC1 [C(81)] ?
stdout: 16

###

The compounds listed here are annotated with their Ki.
Target Desc: CDK2/cyclin A (Homo sapiens, UniProt P24941)
Construct: made in house; host or cells: CDK2: insect cells (baculovirus); cyclin A: E. coli, then limited proteolysis
Test Name: Inhibition of CDK2/cyclin A retinoblastoma kinase activity
Type: biochemical
Stated Conditions: read-out: Ki CDK 2/A
// units = µM; emit number, no label

# Compound, Unit Tag, Ki
data = [
    ("CCNc1nc(N)c(C(=O)c2ccccc2)s1 [I(5)*]", "µM", 4.6),
    ("CNS(=O)(=O)c1ccc(Nc2nc(N)c(C(=O)c3c(F)cccc3F)s2)cc1 [C(108)]", "µM", 0.0068),
    ("Nc1nc(Nc2ccc(S(N)(=O)=O)cc2)sc1C(=O)c1c(Cl)cc(Cl)cc1Cl [C(107)]", "µM", 0.0125),
]

stdin: Quick one: Ki for Cc1c(C(=O)c2sc(Nc3ccc(S(N)(=O)=O)cc3)nc2N)sc2ccccc12 [C(49)] ?
stdout: 0.01

###

The molecules listed here are annotated with their Ki.
Target Desc: complex of human CDK4 and cyclin D3 (Homo sapiens)
Construct: made in house; host or cells: insect cells, co-infected with baculovirus
Test Name: Inhibition of CDK4/cyclin D retinoblastoma kinase activity (D-type cyclin is D3)
Format: biochemical
Stated Conditions: superscript a: D-type cyclin is D3; apparent Ki; read-out: Ki CDK 4/D
Where a name gives a salt, the structure may show the parent alone.

# Molecule, Target Desc, Measured
measured = [
    ("Nc1nc(NC2CCCCC2)sc1C(=O)c1ccc([N+](=O)[O-])cc1 [I(9)]", "complex of human CDK4 and cyclin D3 (Homo sapiens)", "2500 nM"),
]

stdin: Please state recorded Ki (tested on complex of human CDK4 and cyclin D3 (Homo sapiens)) of Cc1cc(C(=O)c2sc(Nc3ccc(S(N)(=O)=O)cc3)nc2N)c(C)s1 [C(50)]
stdout: 25.5 nM

stdin: Please state recorded Ki (tested on complex of human CDK4 and cyclin D3 (Homo sapiens)) of Cc1ccsc1C(=O)c1sc(Nc2ccc(N3CCNCC3)cc2)nc1N [H(1), Trihydrochloride]
stdout: 8.2 nM

stdin: Please state recorded Ki (tested on complex of human CDK4 and cyclin D3 (Homo sapiens)) of Cc1cncc(C)c1C(=O)c1sc(Nc2ccc(S(N)(=O)=O)cc2)nc1N [C(59)]
stdout: 100 nM

###

The molecules listed here are annotated with their Ki.
Target Desc: CDK2/cyclin A (Homo sapiens, UniProt P24941)
Construct: made in house; host or cells: CDK2: insect cells (baculovirus); cyclin A: E. coli, then limited proteolysis
Test Name: Inhibition of CDK2/cyclin A retinoblastoma kinase activity
Assay type: biochemical
Stated Conditions: read-out: Ki CDK 2/A

# Molecule, Target Desc, Measured
data = [
    ("Nc1nc(Nc2ccc(N3CCOCC3)cc2)sc1C(=O)c1c(Cl)ccc([N+](=O)[O-])c1Cl [C(75)]", "CDK2/cyclin A (Homo sapiens, UniProt P24941)", "1080 nM"),
    ("CC(=O)c1ccc(Nc2nc(N)c(C(=O)c3ccccc3[N+](=O)[O-])s2)cc1 [C(24)]", "CDK2/cyclin A (Homo sapiens, UniProt P24941)", "248 nM"),
    ("CNS(=O)(=O)c1ccc(Nc2nc(N)c(C(=O)c3sccc3C)s2)cc1 [C(114)]", "CDK2/cyclin A (Homo sapiens, UniProt P24941)", "8.5 nM"),
    ("CN1CCCN(c2ccc(Nc3nc(N)c(C(=O)c4c(F)cccc4F)s3)cc2)CC1 [C(128)]", "CDK2/cyclin A (Homo sapiens, UniProt P24941)", "440 nM"),
]

Shift focus to the following entry.
stdin: Please state recorded Ki (tested on CDK2/cyclin A (Homo sapiens, UniProt P24941)) of Cc1ccc(C(=O)c2sc(Nc3ccc(N4CCOCC4)cc3)nc2N)c(C)c1 [C(54)]
stdout: 453 nM

All figures here come from patent US6569878B1.
